Source of measurements: ChEMBL document CHEMBL5724914

details: human gut metagenome, 24 h, 2 µM; further: call rule not given here
OBSERVATION TYPE: Bacterial Biotransformation

[[record]]
compound = "C[C@]12CCC(=O)C=C1[C@@H]1C[C@@H]1[C@H]1[C@@H]3[C@@H]4C[C@@H]4[C@@]4(CCC(=O)O4)[C@@]3(C)CC[C@@H]12 [DROSPIRENONE]"
test_value = "Compound NOT metabolized"

[[record]]
compound = "N#Cc1ccc2c(c1)N(CCCN1CCC(O)CC1)c1ccccc1S2 [PERICIAZINE]"
test_value = "Compound NOT metabolized"

[[record]]
compound = "CCN(C)C(=O)Oc1cccc([C@H](C)N(C)C)c1.O=C(O)C(O)C(O)C(=O)O [RIVASTIGMINE TARTRATE]"
test_value = "Compound NOT metabolized"

[[record]]
compound = "CC(=O)O[C@]1(C(C)=O)CC[C@H]2[C@@H]3C=C(C)C4=CC(=O)CC[C@]4(C)[C@H]3CC[C@@]21C [MEGESTROL ACETATE]"
test_value = "Compound metabolized"

[[record]]
compound = "COc1cc2nc(N3CCN(C(=O)C4COc5ccccc5O4)CC3)nc(N)c2cc1OC.CS(=O)(=O)O (configuration not stated) [DOXAZOSIN MESYLATE]"
test_value = "Compound metabolized"

[[record]]
compound = "Nc1nnc(-c2cccc(Cl)c2Cl)c(N)n1 [LAMOTRIGINE]"
test_value = "Compound NOT metabolized"

[[record]]
compound = "Nc1nc(N)nc(-c2cc(Cl)ccc2Cl)n1.O=C(O)/C=C\\C(=O)O [IRSOGLADINE MALEATE]"
test_value = "Compound NOT metabolized"

